system: HL-60; assay: Photocytotoxicity against human HL60 cells assessed as growth inhibition at 1.25 J/cm'2 irradiation for 30 mins followed by drug treated for 72 hrs by MTT assay; format: functional; conditions: HL-60, light or radiation study
# log10 of GI50 listing for each entry below
ASSAY ENDPOINT: log10 of GI50 (log10 of the value in µM)

| CHEMICAL STRUCTURE | ASSAY ENDPOINT | OBSERVED RESULT |
| --- | --- | --- |
| COc1ccc(-n2ncc3c2CCc2cc(S(=O)(=O)c4ccccc4)c(OC)nc2-3)cc1 | log10 of GI50 | 0.72 |
| CCOC(=O)c1cc2c(nc1OC)-c1cnn(-c3ccc(Cl)cc3)c1CC2 | log10 of GI50 | 0.73 |
| COc1nc2c(cc1S(=O)(=O)c1ccccc1)CCc1c-2cnn1-c1cccc(Cl)c1 | log10 of GI50 | 0.53 |
| COc1ccc(-n2ncc3c4nc(OC)c(S(=O)(=O)c5ccccc5)cc4ccc32)cc1 | log10 of GI50 | 0.00 |
| Cn1c(=O)c(S(=O)(=O)c2ccccc2)cc2ccc3c(cnn3-c3ccc(Cl)cc3)c21 | log10 of GI50 | -0.41 |
| Cn1c2c(cc(S(=O)(=O)c3ccccc3)c1=O)CCc1c-2cnn1-c1ccccc1Cl | log10 of GI50 | 1.06 |
| COc1nc2c(cc1S(=O)(=O)c1ccccc1)CCc1c-2cnn1-c1ccccc1 | log10 of GI50 | 0.45 |
| COc1nc2c(cc1S(=O)(=O)c1ccccc1)CCc1c-2cnn1Cc1ccccc1 | log10 of GI50 | 0.58 |
| COc1nc2c(cc1S(=O)(=O)c1ccccc1)CCc1c-2cnn1-c1ccccc1Cl | log10 of GI50 | 0.58 |

* * *

Entries and their GI50
tested on: Jurkat; assay: Photocytotoxicity against human Jurkat cells assessed as growth inhibition at 2.5 J/cm'2 irradiation for 30 mins followed by drug treated for 72 hrs by MTT assay; assay type: functional; details: light or radiation study
ASSAY ENDPOINT: GI50 (µM)

| CHEMICAL STRUCTURE | TARGET DESC | MODIFIER | OBSERVED RESULT |
| --- | --- | --- | --- |
| COc1nc2c(cc1S(=O)(=O)c1ccccc1)CCc1c-2cnn1-c1cccc(Cl)c1 | Jurkat | = | 1.34 |
| COc1nc2c(cc1S(=O)(=O)c1ccccc1)CCc1c-2cnn1C | Jurkat | = | 12.7 |
| CCOC(=O)c1cc2c([nH]c1=O)-c1cnn(-c3ccc(Cl)cc3)c1CC2 | Jurkat | > | 20 |
| Cn1c2c(cc(S(=O)(=O)c3ccccc3)c1=O)CCc1c-2cnn1-c1ccccc1 | Jurkat | = | 6.99 |
| COc1nc2c(cc1S(=O)(=O)c1ccccc1)CCc1c-2cnn1-c1ccccc1Cl | Jurkat | = | 0.9 |
| COc1ccc(-n2ncc3c2ccc2cc(S(=O)(=O)c4ccccc4)c(=O)n(C)c23)cc1 | Jurkat | = | 0.25 |
| O=c1[nH]c2c(cc1S(=O)(=O)c1ccccc1)CCc1c-2cnn1-c1cccc(Cl)c1 | Jurkat | > | 20 |
| O=c1[nH]c2c(cc1S(=O)(=O)c1ccccc1)CCc1c-2cnn1Cc1ccccc1 | Jurkat | = | 6.88 |
| CCOC(=O)c1cc2c(nc1OC)-c1cnn(-c3ccc(OC)cc3)c1CC2 | Jurkat | = | 6.43 |
| COc1ccc(-n2ncc3c2CCc2cc(S(=O)(=O)c4ccccc4)c(OCc4ccccc4)nc2-3)cc1 | Jurkat | > | 20 |
| COc1ccc(-n2ncc3c4[nH]c(=O)c(S(=O)(=O)c5ccccc5)cc4ccc32)cc1 | Jurkat | > | 20 |
| COc1ccc(-n2ncc3c2CCc2cc(S(=O)(=O)c4ccccc4)c(=O)n(Cc4ccccc4)c2-3)cc1 | Jurkat | > | 20 |
| COc1ccc(-n2ncc3c2CCc2cc(S(=O)(=O)c4ccccc4)c(OC)nc2-3)cc1 | Jurkat | = | 0.64 |
| O=c1c(S(=O)(=O)c2ccccc2)cc2c(n1Cc1ccccc1)-c1cnn(-c3ccc(Cl)cc3)c1CC2 | Jurkat | = | 4.97 |
| COc1nc2c(cc1S(=O)(=O)c1ccccc1)CCc1c-2cnn1-c1ccc(Cl)cc1 | Jurkat | = | 0.43 |

* * *

Items are presented alongside their recorded GI50.
tested on: Jurkat; experiment: Photocytotoxicity against human Jurkat cells assessed as growth inhibition at 1.25 J/cm'2 irradiation for 30 mins followed by drug treated for 72 hrs by MTT assay; type: functional; settings: light or radiation study

| CHEMICAL STRUCTURE | GI50 |
| --- | --- |
| CCOC(=O)c1cc2c(nc1OC)-c1cnn(-c3ccc(OC)cc3)c1CC2 | 9.93 µM |
| COc1nc2c(cc1S(=O)(=O)c1ccccc1)CCc1c-2cnn1-c1ccccc1 | 3.65 µM |
| Cn1c2c(cc(S(=O)(=O)c3ccccc3)c1=O)CCc1c-2cnn1-c1cccc(Cl)c1 | > 20 µM |
| COc1ccc(-n2ncc3c2CCc2cc(S(=O)(=O)c4ccccc4)c(OC)nc2-3)cc1 | 1.15 µM |
| Cn1c2c(cc(S(=O)(=O)c3ccccc3)c1=O)CCc1c-2cnn1-c1ccc(Cl)cc1 | > 20 µM |
| Cn1c2c(cc(S(=O)(=O)c3ccccc3)c1=O)CCc1c-2cnn1Cc1ccccc1 | > 20 µM |
| O=c1c(S(=O)(=O)c2ccccc2)cc2c(n1Cc1ccccc1)-c1cnn(-c3ccc(Cl)cc3)c1CC2 | > 20 µM |
| COc1ccc(-n2ncc3c2CCc2cc(S(=O)(=O)c4ccccc4)c(=O)n(Cc4ccccc4)c2-3)cc1 | > 20 µM |
| O=c1[nH]c2c(cc1S(=O)(=O)c1ccccc1)CCc1c-2cnn1Cc1ccccc1 | > 20 µM |

* * *

system: LoVo; assay: Photocytotoxicity against human LoVo cells assessed as growth inhibition at 2.5 J/cm'2 irradiation for 30 mins followed by drug treated for 72 hrs by MTT assay; assay type: functional; conditions: light or radiation study

| COMPOUND | TARGET DESC | MEASUREMENT UNIT | MODIFIER | GI50 |
| --- | --- | --- | --- | --- |
| O=c1ccc2ccc3occc3c2o1 [ANGELICIN] | LoVo | µM | = | 4 |
| Cn1c2c(cc(S(=O)(=O)c3ccccc3)c1=O)CCc1c-2cnn1-c1ccccc1 | LoVo | µM | > | 20 |
| O=c1[nH]c2c(cc1S(=O)(=O)c1ccccc1)CCc1c-2cnn1-c1cccc(Cl)c1 | LoVo | µM | > | 20 |
| O=c1[nH]c2c(cc1S(=O)(=O)c1ccccc1)CCc1c-2cnn1-c1ccccc1Cl | LoVo | µM | > | 20 |
| Cn1c(=O)c(S(=O)(=O)c2ccccc2)cc2ccc3c(cnn3-c3ccc(Cl)cc3)c21 | LoVo | µM | = | 0.16 |
| COc1nc2c(ccc3c2cnn3-c2ccc(Cl)cc2)cc1S(=O)(=O)c1ccccc1 | LoVo | µM | = | 1.43 |
| Cn1c2c(cc(S(=O)(=O)c3ccccc3)c1=O)CCc1c-2cnn1-c1ccccc1Cl | LoVo | µM | > | 20 |
| COc1nc2c(cc1S(=O)(=O)c1ccccc1)CCc1c-2cnn1-c1ccccc1Cl | LoVo | µM | = | 5.73 |
| Cn1c2c(cc(S(=O)(=O)c3ccccc3)c1=O)CCc1c-2cnn1-c1ccc(Cl)cc1 | LoVo | µM | > | 20 |
| Cn1c2c(cc(S(=O)(=O)c3ccccc3)c1=O)CCc1c-2cnn1Cc1ccccc1 | LoVo | µM | > | 20 |
| COc1nc2c(cc1S(=O)(=O)c1ccccc1)CCc1c-2cnn1-c1ccccc1 | LoVo | µM | = | 3.14 |

* * *

test system: LoVo; experiment: Photocytotoxicity against human LoVo cells assessed as growth inhibition at 2.5 J/cm'2 irradiation for 30 mins followed by drug treated for 72 hrs by MTT assay; type: functional; settings: light or radiation study
Below: a set of entries, each annotated with reported GI50.

| CHEMICAL STRUCTURE | MODIFIER | GI50 / µM |
| --- | --- | --- |
| COc1ccc(-n2ncc3c4nc(OC)c(S(=O)(=O)c5ccccc5)cc4ccc32)cc1 | = | 0.42 |
| COc1nc2c(cc1S(=O)(=O)c1ccccc1)CCc1c-2cnn1-c1cccc(Cl)c1 | = | 9.84 |
| COc1ccc(-n2ncc3c2ccc2cc(S(=O)(=O)c4ccccc4)c(=O)n(C)c23)cc1 | = | 0.19 |
| COc1ccc(-n2ncc3c4[nH]c(=O)c(S(=O)(=O)c5ccccc5)cc4ccc32)cc1 | > | 20 |
| COc1ccc(-n2ncc3c2CCc2cc(S(=O)(=O)c4ccccc4)c(=O)n(C)c2-3)cc1 | > | 20 |
| O=c1[nH]c2c(cc1S(=O)(=O)c1ccccc1)CCc1c-2cnn1Cc1ccccc1 | > | 20 |
| COc1ccc(-n2ncc3c2CCc2cc(S(=O)(=O)c4ccccc4)c(=O)n(Cc4ccccc4)c2-3)cc1 | > | 20 |
| CCOC(=O)c1cc2c([nH]c1=O)-c1cnn(-c3ccc(Cl)cc3)c1CC2 | > | 20 |
| COc1nc2c(cc1S(=O)(=O)c1ccccc1)CCc1c-2cnn1Cc1ccccc1 | = | 5.32 |

Where do the numbers come from? From ChEMBL document CHEMBL3616466.
